This listing pairs binders with measured EC50.
- TGT: T1, human mutCALR on BaF3 cells stably expressing human MPL and human mutCALR (MPL-mutCALR cells) (human)
- T1 construct: also called mutant calreticulin
- T1 chain: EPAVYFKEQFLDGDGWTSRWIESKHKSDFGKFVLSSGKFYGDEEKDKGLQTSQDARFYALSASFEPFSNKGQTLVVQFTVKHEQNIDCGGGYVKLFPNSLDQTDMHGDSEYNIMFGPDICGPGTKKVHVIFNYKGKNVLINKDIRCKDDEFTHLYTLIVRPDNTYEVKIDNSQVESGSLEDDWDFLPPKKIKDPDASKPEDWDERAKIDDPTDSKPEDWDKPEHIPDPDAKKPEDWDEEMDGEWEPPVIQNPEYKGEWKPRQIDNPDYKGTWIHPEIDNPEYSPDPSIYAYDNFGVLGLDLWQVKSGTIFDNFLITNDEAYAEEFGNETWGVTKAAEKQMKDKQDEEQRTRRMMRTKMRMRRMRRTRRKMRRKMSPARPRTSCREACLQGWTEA
- MEASUREMENT DESCRIPTION: flow cytometry, BaF3 MPL-mutCALR cells
Answer with the value and then the unit.

Worked cases, answers included:
BINDER: anti-mutCALR antibody clone 76 (antibody, human IgG1, lambda, N297A, V domains shown) VH: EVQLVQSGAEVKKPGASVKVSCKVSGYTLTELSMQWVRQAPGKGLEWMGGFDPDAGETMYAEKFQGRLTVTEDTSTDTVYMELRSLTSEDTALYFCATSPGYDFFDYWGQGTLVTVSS VL: SYVLTQPPSVSVAPGKTARITCGGNNIGSKSVHWYQQKPGQAPVLVVYDDSDRPSGIPERFSGSNSGNTATLTISRVEAGDEADYYCQVWDSSNDLLIFGGGTKLTVLG
READOUT NAME: EC50
REPORTED: 8.2 ng/mL
--
BINDER: anti-mutCALR antibody clone 181 (antibody, human IgG1, lambda, N297A, V domains shown) VH: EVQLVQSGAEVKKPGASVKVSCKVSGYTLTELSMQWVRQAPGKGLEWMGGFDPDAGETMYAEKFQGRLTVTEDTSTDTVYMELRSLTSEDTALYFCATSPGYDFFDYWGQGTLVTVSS VL: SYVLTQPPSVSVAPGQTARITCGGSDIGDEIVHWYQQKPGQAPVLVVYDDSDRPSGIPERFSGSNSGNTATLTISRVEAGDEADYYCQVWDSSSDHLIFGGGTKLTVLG
READOUT NAME: EC50
REPORTED: 3.5 ng/mL

Consider the record given below.
Note EC50 for the binder shown: anti-mutCALR antibody clone 79 (antibody, human IgG1, lambda, N297A, V domains shown) VH: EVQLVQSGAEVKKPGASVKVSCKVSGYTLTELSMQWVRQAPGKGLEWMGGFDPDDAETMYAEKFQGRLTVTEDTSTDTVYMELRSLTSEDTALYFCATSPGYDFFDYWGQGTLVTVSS VL: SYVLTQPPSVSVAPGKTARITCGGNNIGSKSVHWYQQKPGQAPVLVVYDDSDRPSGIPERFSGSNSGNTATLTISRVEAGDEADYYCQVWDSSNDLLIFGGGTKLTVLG
3.3 ng/mL
